All figures here come from ChEMBL document CHEMBL3988442.

Target: Proteasome subunit beta (Trypanosoma cruzi)
Sequence (whole entry): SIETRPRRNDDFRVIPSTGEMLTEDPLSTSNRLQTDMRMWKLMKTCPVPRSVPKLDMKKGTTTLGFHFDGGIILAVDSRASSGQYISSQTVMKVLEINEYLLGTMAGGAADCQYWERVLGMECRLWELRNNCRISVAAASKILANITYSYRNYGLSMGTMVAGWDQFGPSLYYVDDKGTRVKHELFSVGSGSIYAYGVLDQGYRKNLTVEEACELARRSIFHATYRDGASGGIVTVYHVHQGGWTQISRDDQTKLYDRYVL
Assay: Trypanosoma cruzi proteasome chymotrypsin-like activity (TcProtChymo) assay.
Type: functional
Design: scale not given: in the data most compounds retested in dose-response had high values
Details: 9.37 µM
propertyName: Percent Effect (%)
Express your answer in %, writing the number without its unit.

# compound, resultNumber
records = [
    ("CN(Cc1ccc(N2CCCCC2)cc1)Cc1noc(C(C)(C)C)n1", 13.8),
    ("COc1c(CNC(c2ccc(F)cc2)C(C)(C)C)c(C)nn1C (centres undefined)", 4.84),
]

So what does the record say about Percent Effect for "CS(=O)(=O)N1C[C@@H]2CC[C@H](C1)N(Cc1cscn1)C2=O" ? 9.85

So what does the record say about Percent Effect for "COc1cc(N2C[C@@H]3COC[C@]3(COc3cccnc3)C2)ncn1" ? 18.4

So what does the record say about Percent Effect for "Cc1nc(N2CCOCC2)nc2c1CN(C(=O)Cc1ccccn1)CC2" ? 2.66

So what does the record say about Percent Effect for "CC(C)c1nccn1-c1cccc(C2CCN(C)CC2)n1" ? 14.2

So what does the record say about Percent Effect for CC(C)(C)N1CC(C(=O)N2CCN(CCn3cccc3)CC2)CC1=O (centres undefined) ? 12

So what does the record say about Percent Effect for CCn1ccnc1CN(C)C1CCCN(CCc2ccccc2)C1 (centres undefined) ? 0.832

So what does the record say about Percent Effect for "CN(C)C(=O)CNC(=O)c1ccc(Cl)cc1F" ? 13.7
